Readings of growth for the listed compounds
Test system: HCT-116 colon
Assay: NCI-60 one-dose screen, 48 h (100 = growth as untreated, 0 = no growth, -100 = all killed)
Settings: 10 µM unless noted
The panel holds about 83,000 compounds, 20% with a hit somewhere; the sample as a whole holds those more often. Calls of active or inactive are those of the source. The calls were made as follows: active = growth percent below 10; inactive = the rest.
measurementKind: growth

smilesRepr: Nc1c(Br)cc2c(c1Br)Cc1cc(Cl)ccc1-2
reportedMeasurement: 97.1% (inactive)

smilesRepr: Cn1c(=O)c2c(nc(N/N=C/c3ccccc3Cl)n2C)n(C)c1=O
reportedMeasurement: 97.5% (inactive)

smilesRepr: O=C(N/N=C/c1ccc([N+](=O)[O-])o1)c1ccc(O)cc1
reportedMeasurement: 11.4% (inactive)

smilesRepr: CCOC(=O)C#Cc1c(C(=O)OCC)nnn1[C@@H]1O[C@H](COC(C)=O)[C@@H](OC(C)=O)[C@H]1OC(C)=O
reportedMeasurement: 92.4% (inactive)

smilesRepr: c1coc(CNc2c3ccccc3nc3ccccc23)c1
reportedMeasurement: 24.1% (inactive)
